Where do these numbers come from? They come from patent US6583108B1.

system_tested: human neutrophil elastase (human, UniProt P08246)
test: enzyme inhibition kinetics; first preparation of bikunin (7-64)
test_readout: Ki

binder="synthetic placental bikunin (7-64) (other) IHDFCLVSKVVGRCRASMPRWWYNVTDGSCQLFVYGGCDGNSNNYLTKEECLKKCATV" test_readout=Ki obs_value="> 100 nM"
